Target: Mitogen-activated protein kinase; ERK1/ERK2 (Homo sapiens, UniProt P27361+P28482)
Protocol details: Inhibition of ERK1/2 in human A375 cells harboring B-RAF V600E mutant assessed as decrease in phospho-RSK level after 2 hrs by Cellomics ArrayScanTM VTI imaging analysis
Type: cell-based
Experimental conditions: a-375
Assay readout: IC50 (nM)

C=CC(=O)Nc1ccccc1Nc1nc(NC2CCOCC2)ncc1C(F)(F)F :: 65

A = C=CC(=O)Nc1ccccc1Nc1nc(Nc2ccnn2C)ncc1Cl
B = CNC(=O)c1ccccc1Nc1cc(NC2CCOCC2)ncc1Cl
C = C=CS(=O)(=O)N1CCc2[nH]nc(-c3ccnc(C)c3)c2C1
D = C=CC(=O)Nc1ccccc1Nc1nc(N[C@H]2CC[C@H](N(C)C)CC2)ncc1Cl
Sort low-to-high on IC50, please. Record the ranking as a list of labels in the requested order.
A, D, C, B
